tested on: 521955-158-R2-J5-PDC complex spheroid viability; experiment: Anticancer human tumor 521955-158-R2-J5-PDC patient-derived pancreatic carcinoma cell line growth inhibition; conditions: second compound 1 µM; first compound 3.16 µM; active compounds read low

{"COMPOUND": "CC1(C)CCC(CN2CCN(c3ccc(C(=O)NS(=O)(=O)c4ccc(NCC5CCOCC5)c([N+](=O)[O-])c4)c(Oc4cnc5[nH]ccc5c4)c3)CC2)=C(c2ccc(Cl)cc2)C1 + NC1CCC(NC2CC2c2ccccc2)CC1", "viability, T/C": "58.8%"}
{"COMPOUND": "COc1ccc([C@@H](O)c2cc(-c3ncnc4cc(N5CCOCC5)ccc34)c(F)cc2Cl)nn1 + NC1CCC(NC2CC2c2ccccc2)CC1", "viability, T/C": "30.9%"}
{"COMPOUND": "COc1ccc([C@@H](O)c2cc(-c3ncnc4cc(N5CCOCC5)ccc34)c(F)cc2Cl)nn1 + NC1CC1c1ccc(-c2cccc(O)c2)cc1", "viability, T/C": "37.3%"}

---

test system: 521955-158-R2-J5-PDC complex spheroid viability; assay: Anticancer human tumor 521955-158-R2-J5-PDC cell line growth inhibition; details: second compound 10 µM; first compound 0.01 µM; active compounds read low;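 also: spheroids exposed to agents for seven days; percent of DMSO vehicle control luminescence viability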
We begin with a simple list: items and their reported viability, T/C.
ENDPOINT LABEL: viability, T/C

{"MOLECULE": "CC[C@@]1(O)C(=O)OCc2c1cc1n(c2=O)Cc2cc3c(CN(C)C)c(O)ccc3nc2-1 + NC1CCC(NC2CC2c2ccccc2)CC1", "OBSERVED RESULT": "13.1%"}
{"MOLECULE": "CC[C@@]1(O)C(=O)OCc2c1cc1n(c2=O)Cc2cc3c(CN(C)C)c(O)ccc3nc2-1 + NC1CC1c1ccc(-c2cccc(O)c2)cc1", "OBSERVED RESULT": "37.7%"}
{"MOLECULE": "O=C(C=Cn1cnc(-c2cc(C(F)(F)F)cc(C(F)(F)F)c2)n1)NNc1cnccn1 + NC1CC1c1ccc(-c2cccc(O)c2)cc1", "OBSERVED RESULT": "56.9%"}
{"MOLECULE": "Nc1ncn(C2CC(O)C(CO)O2)c(=O)n1 (centres undefined) + NC1CCC(NC2CC2c2ccccc2)CC1", "OBSERVED RESULT": "91%"}

---

tested on: 521955-158-R2-J5-PDC complex spheroid viability; assay: Anticancer human tumor 521955-158-R2-J5-PDC cell line growth inhibition; conditions: second compound 0.1 µM; first compound 3 µM; active compounds read low;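 also: spheroids exposed to agents for seven days; percent of DMSO vehicle control luminescence viability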
The threshold is 7%. Values of viability, T/C beneath it are tagged y; values meeting or exceeding it are tagged n.

{"COMPOUND": "NS(=O)(=O)OCC1CC(n2ccc3c(NC4CCc5ccccc54)ncnc32)CC1O (configuration not stated) + NC1CC1c1ccc(-c2cccc(O)c2)cc1", "CLASS NAME": "n"}
{"COMPOUND": "COc1cc(C2c3cc4c(cc3C(OC3OC5COC(C)OC5C(O)C3O)C3COC(=O)C23)OCO4)cc(OC)c1O (configuration not stated) + NC1CC1c1ccc(-c2cccc(O)c2)cc1", "CLASS NAME": "n"}
{"COMPOUND": "O=C(C=Cc1cccc(S(=O)(=O)Nc2ccccc2)c1)NO + NC1CCC(NC2CC2c2ccccc2)CC1", "CLASS NAME": "n"}
{"COMPOUND": "CCN(c1cc(-c2ccc(CN3CCOCC3)cc2)cc(C(=O)NCc2c(C)cc(C)[nH]c2=O)c1C)C1CCOCC1 + NC1CCC(NC2CC2c2ccccc2)CC1", "CLASS NAME": "n"}
{"COMPOUND": "Nc1ccccc1NC(=O)c1ccc(CNC(=O)OCc2cccnc2)cc1 + NC1CCC(NC2CC2c2ccccc2)CC1", "CLASS NAME": "y"}
{"COMPOUND": "O=C(C=Cc1cccc(S(=O)(=O)Nc2ccccc2)c1)NO + NC1CC1c1ccc(-c2cccc(O)c2)cc1", "CLASS NAME": "y"}
